Values were extracted from ChEMBL document CHEMBL1795263.

Consider the following IC50 values measured on UniProt P16116.
measured_property: IC50 (nM)

Input: Any idea what its IC50 is? The compound is O=C(O)CN1C(=O)S/C(=C\C=C\c2ccccc2)C1=O
Output: 1320

[a] COc1ccc(/C=C/C=C2\SC(=O)N(CC(=O)O)C2=O)cc1
[b] O=C(O)CN1C(=O)S/C(=C\c2ccc(/C=C/c3ccc(C(F)(F)F)cc3)cc2)C1=O
[c] COc1ccc(/C=C/c2ccc(/C=C3\SC(=O)N(CC(=O)O)C3=O)cc2)cc1
[d] O=C(O)CN1C(=O)/C(=C\c2ccc3ccccc3c2)S/C1=N\c1ccccc1
[e] O=C(O)CN1C(=O)/C(=C\c2ccc(Oc3ccccc3)cc2)S/C1=N\c1ccccc1
Input: Rank the 5 compounds: largest IC50 first, smallest last. Labels, ranked as asked.
Output: e, d, b, a, c
